Would you mind telling me the reported cell survival (% of vehicle control) at 100 µM of each entry?
# System: MCF7
# protocol_notes: Cytotoxicity against human MCF7 cells at 100 uM after 72 hrs by Cell Titer 96 Aqueous Non-Radioactive assay
# Type: functional
# protocol_conditions: MCF7, 72 h, read-out: Inhibition
Express the result in % but write the number alone.

Recorded cell survival (% of vehicle control) at 100 µM for COc1ccc2c(C[C@@H]3NC(=O)[C@H]4CCCN4C3=O)c(CC=C(C)C)[nH]c2c1 , please?
99

Now consider CC(C)=CCc1[nH]c2ccccc2c1C[C@@H]1NC(=O)[C@@H]2CCCN2C1=O [TRYPROSTATIN B] .
66.7

Now consider CC(C)=CCc1[nH]c2ccccc2c1C[C@@H]1NC(=O)[C@H]2CCCN2C1=O .
0

Now consider COc1ccc2c(C[C@@H]3NC(=O)[C@@H]4CCCN4C3=O)c(CC=C(C)C)[nH]c2c1 [TRYPROSTATIN A] .
95

====

# System: HOP-92
# protocol_notes: Cytotoxicity against human HOP92 cells
# Format: functional
recorded_endpoint: GI50 (µM)
Express the result in µM but write the number alone.

Give HOP-92 GI50 for COc1ccc2c(C[C@@H]3NC(=O)[C@@H]4CCCN4C3=O)c(CC=C(C)C)[nH]c2c1
21.2

Now consider COc1ccc2c(C[C@H]3NC(=O)[C@H]4CCCN4C3=O)c(CC=C(C)C)[nH]c2c1 .
23.1

Now consider CC(C)=CCc1[nH]c2ccccc2c1C[C@@H]1NC(=O)[C@H]2CCCN2C1=O .
1.7

Now consider CC(C)=CCc1[nH]c2ccccc2c1C[C@H]1NC(=O)[C@@H]2CCCN2C1=O .
2.94

Now consider COc1ccc2c(C[C@@H]3NC(=O)[C@H]4CCCN4C3=O)c(CC=C(C)C)[nH]c2c1 .
16.8

Now consider CC(C)=CCc1[nH]c2ccccc2c1C[C@@H]1NC(=O)[C@@H]2CCCN2C1=O .
43.1

====

# Test system: UO-31
# protocol_notes: Cytotoxicity against human UO31 cells
# Type: functional
recorded_endpoint: GI50 (µM)
Express the result in µM but write the number alone.

Recorded GI50 for CC(C)=CCc1[nH]c2ccccc2c1C[C@H]1NC(=O)[C@@H]2CCCN2C1=O , please?
45.7

Now consider CC(C)=CCc1[nH]c2ccccc2c1C[C@H]1NC(=O)[C@H]2CCCN2C1=O .
12.6

Now consider CC(C)=CCc1[nH]c2ccccc2c1C[C@@H]1NC(=O)[C@H]2CCCN2C1=O .
14.7

Now consider COc1ccc2c(C[C@H]3NC(=O)[C@@H]4CCCN4C3=O)c(CC=C(C)C)[nH]c2c1 .
27.3

====

Would you mind telling me the reported GI50 of each entry?
# System: MCF7
# protocol_notes: Cytotoxicity against human MCF7 cells after 72 hrs by Cell Titer 96 Aqueous Non-Radioactive assay
# Assay type: functional
# protocol_conditions: MCF7, 72 h

Recorded GI50 for COc1cc([C@@H]2c3cc4c(cc3[C@@H](O[C@@H]3O[C@@H]5CO[C@@H](C)O[C@H]5[C@H](O)[C@H]3O)[C@H]3COC(=O)[C@H]23)OCO4)cc(OC)c1O [ETOPOSIDE] , please?
55.6 µM

Now consider CC(C)=CCc1[nH]c2ccccc2c1C[C@H]1NC(=O)[C@@H]2CCCN2C1=O .
25.9 µM

Now consider COc1ccc2c(C[C@@H]3NC(=O)[C@@H]4CCCN4C3=O)c(CC=C(C)C)[nH]c2c1 [TRYPROSTATIN A] .
> 100 µM
